Taken from ChEMBL document CHEMBL1156573.

- TARGET_OR_SYSTEM: Cannabinoid receptor 1 (Homo sapiens)
- TEST_SUMMARY: Agonist activity at human CB1 receptor expressed in CHO cells by [35S]GTPgammaS assay relative to CP-55940
- Assay type: functional, cell-based
Criterion: Emax strictly less than 70%. Met: satisfied. Not met: not satisfied.

[
  {
    "COMPOUND_STRUCTURE_STRING": "O=C(N/N=C1\\C(=O)N(CC2CCCCC2)c2ccccc21)c1ccccc1",
    "TARGET_OR_SYSTEM": "Cannabinoid receptor 1 (Homo sapiens)",
    "LABEL_VALUE": "not satisfied"
  },
  {
    "COMPOUND_STRUCTURE_STRING": "CCCCCN1C(=O)/C(=N\\NC(=O)c2ccccc2)c2ccccc21",
    "TARGET_OR_SYSTEM": "Cannabinoid receptor 1 (Homo sapiens)",
    "LABEL_VALUE": "not satisfied"
  },
  {
    "COMPOUND_STRUCTURE_STRING": "O=C(Cc1ccccc1)N/N=C1\\C(=O)N(CCC2CCCCC2)c2ccccc21",
    "TARGET_OR_SYSTEM": "Cannabinoid receptor 1 (Homo sapiens)",
    "LABEL_VALUE": "not satisfied"
  },
  {
    "COMPOUND_STRUCTURE_STRING": "CCCCCCN1C(=O)/C(=N\\NC(=O)OC(C)(C)C)c2ccccc21",
    "TARGET_OR_SYSTEM": "Cannabinoid receptor 1 (Homo sapiens)",
    "LABEL_VALUE": "not satisfied"
  },
  {
    "COMPOUND_STRUCTURE_STRING": "O=C(N/N=C1\\C(=O)N(Cc2ccccc2)c2ccccc21)c1ccccc1",
    "TARGET_OR_SYSTEM": "Cannabinoid receptor 1 (Homo sapiens)",
    "LABEL_VALUE": "satisfied"
  },
  {
    "COMPOUND_STRUCTURE_STRING": "O=C(N/N=C1\\C(=O)N(CCC2CCCCC2)c2ccccc21)c1ccccc1",
    "TARGET_OR_SYSTEM": "Cannabinoid receptor 1 (Homo sapiens)",
    "LABEL_VALUE": "satisfied"
  },
  {
    "COMPOUND_STRUCTURE_STRING": "CCCCCCN1C(=O)/C(=N\\NC(=O)c2ccccc2)c2ccccc21",
    "TARGET_OR_SYSTEM": "Cannabinoid receptor 1 (Homo sapiens)",
    "LABEL_VALUE": "satisfied"
  }
]

====

- TARGET_OR_SYSTEM: UniProt:P34972
- Sequence (P34972 whole entry): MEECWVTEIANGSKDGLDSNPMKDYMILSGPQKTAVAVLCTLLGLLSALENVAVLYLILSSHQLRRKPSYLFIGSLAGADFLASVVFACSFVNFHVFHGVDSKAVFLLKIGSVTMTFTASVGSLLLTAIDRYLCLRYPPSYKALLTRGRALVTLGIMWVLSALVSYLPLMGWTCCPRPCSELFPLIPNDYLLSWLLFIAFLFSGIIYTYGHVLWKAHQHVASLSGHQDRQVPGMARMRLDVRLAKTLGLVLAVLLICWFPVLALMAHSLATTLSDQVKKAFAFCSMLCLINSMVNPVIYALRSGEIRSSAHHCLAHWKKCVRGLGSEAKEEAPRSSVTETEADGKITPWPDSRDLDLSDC
- TEST_SUMMARY: Displacement of [3H](R)-3-methyl-2-(3-(morpholinomethyl)-3,4-dihydro-2H-benzo[b][1,4]oxazin-5-yl)-1-(naphthalen-1-yl)but-2-en-1-one from human CB2 receptor expressed in CHO cells at 1 uM by liquid scintillation counting
- Assay type: cell-based

[
  {
    "COMPOUND_STRUCTURE_STRING": "CCCCCCN1C(=O)/C(=N\\NC(=O)C2CCCCC2)c2ccccc21",
    "TARGET_OR_SYSTEM": "UniProt:P34972",
    "Activity": "61%"
  },
  {
    "COMPOUND_STRUCTURE_STRING": "CCCCCCN1C(=O)/C(=N\\NC(=O)c2ccccc2)c2cccc(C)c21",
    "TARGET_OR_SYSTEM": "UniProt:P34972",
    "Activity": "68%"
  },
  {
    "COMPOUND_STRUCTURE_STRING": "CCCCCCN1C(=O)/C(=N\\NC(=O)OC(C)(C)C)c2ccccc21",
    "TARGET_OR_SYSTEM": "UniProt:P34972",
    "Activity": "82.3%"
  },
  {
    "COMPOUND_STRUCTURE_STRING": "O=C(N/N=C1\\C(=O)N(Cc2ccccc2)c2ccccc21)c1ccccc1",
    "TARGET_OR_SYSTEM": "UniProt:P34972",
    "Activity": "55%"
  }
]
